target: KHK (Homo sapiens, UniProt P50053); construct: (His)6 tag (N); thrombin cleavage site (N); made in house; host or cells: E. coli BL-21 (DE3); assay: coupled enzyme assay for KHK activity; format: biochemical; settings: purified human recombinant KHK, PK/LDH coupled assay, A340 at 25° C., 0.1 mM ATP, 0.2 mM fructose; isoform (KHK-C or KHK-A) not given
Sequence (P50053 whole entry, canonical isoform): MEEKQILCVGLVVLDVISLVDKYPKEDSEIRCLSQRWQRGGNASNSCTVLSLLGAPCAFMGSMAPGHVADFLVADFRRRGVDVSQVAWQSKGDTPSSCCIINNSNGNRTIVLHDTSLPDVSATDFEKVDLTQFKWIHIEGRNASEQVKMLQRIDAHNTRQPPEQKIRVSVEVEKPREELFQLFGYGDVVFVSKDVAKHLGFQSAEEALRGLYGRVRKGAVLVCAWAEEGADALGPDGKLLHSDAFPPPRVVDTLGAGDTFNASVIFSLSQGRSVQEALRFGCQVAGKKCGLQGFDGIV
pIC50: −log10 of the molar value. Structures can show the parent of a compound that is named as a salt.
ENDPOINT: pIC50

INSERT INTO measurements (molecule, recorded_number) VALUES
  ('Cc1cccc(-n2ncc3ccc(NC(=O)C(N)C(N)=O)cc32)c1 (stereo not drawn) [Compound 38, hydrochloride]', 5.85),
  ('CCCCCCCC(=O)OC[C@H](NC(=O)OC(C)C)C(=O)Nc1ccc2cnn(-c3cccc(C)c3)c2c1', 3.70),
  ('Cc1cccc(-n2ncc3cnc(NC(=O)[C@@H](N)CO)cc32)c1 [Compound 44, hydrochloride]', 4.82),
  ('Cc1cccc(-n2ncc3cc(C)c(NC(=O)[C@@H](N)CO)cc32)c1 [Compound 42, hydrochloride]', 5.74);

I = CC(=O)OC[C@H](N)C(=O)Nc1ccc2cnn(-c3cccc(C)c3)c2c1 [Compound 41, acetate hydrochloride]
II = Cc1cccc(-n2ncc3ccc(NC(=O)C(CN)C(C)C)cc32)c1 (stereo not drawn) [Compound 8, hydrochloride]
Qu. Lower value for measured pIC50? Options: I , II // return label of chosen record
Ans. II
(II: 5.31, I: 5.57)

1 = Cc1cccc(-n2ncc3c(F)cc(NC(=O)[C@H]4NCC[C@@H]4O)cc32)c1 [Compound 19, hydrochloride]
2 = Cc1cccc(-n2ncc3ccc(NC(=O)[C@@H](N)C(C)(C)O)cc32)c1 [Compound 21, hydrochloride]
3 = CCCCCCCC(=O)OC[C@H](N)C(=O)Nc1cc(F)c2cnn(-c3cccc(C)c3)c2c1 [Compound 26, hydrochloride]
4 = Cc1cccc(-n2ncc3ccc(NC(=O)[C@H](N)CN)cc32)c1 [Compound 14, dihydrochloride]
5 = CCc1nn(-c2cccc(C)c2)c2cc(NC(=O)[C@@H](N)CO)c(C)cc12 [Compound 46, hydrochloride]
Qu. Rank by pIC50 (largest to smallest). Hello, could you send the labels back in the order asked? Thank you.
Ans. 1, 4, 5, 2, 3
(1: 6.28, 4: 5.96, 5: 5.72, 2: 5.44, 3: 5.10)

P = Cc1cccc(-n2ncc3ccc(NC(=O)[C@@](C)(N)CO)cc32)c1 [Compound 22, hydrochloride]
Q = Cc1cccc(-n2ncc3ccc(NC(=O)C(N)CO)cc32)c1 (stereo not drawn) [Compound 1, hydrochloride]
R = Cc1cccc(-n2ncc3ccc(NC(=O)[C@@H](N)[C@@H](C)O)cc32)c1 [Compound 20, hydrochloride]
Qu. Arrange the 3 molecules from largest to smallest pIC50. Please, when replying, give the labels in the order that was requested.
Ans. Q, P, R
(Q: 6.92, P: 6.38, R: 6.14)

---

target: KHK (Homo sapiens, UniProt P50053); construct: (His)6 tag (N); thrombin cleavage site (N); assay: coupled enzyme assay for KHK activity; details: purified human recombinant KHK, PK/LDH coupled assay, A340 at 25° C., 0.1 mM ATP, 0.2 mM fructose; isoform (KHK-C or KHK-A) not given
pIC50: −log10 of the molar value. Counter-ions that a name gives are not always drawn.
ENDPOINT: pIC50

Past entries and their recorded results:
INSERT INTO results (molecule, endpoint, recorded_number) VALUES
  ('Cc1cccc(-n2ncc3ccc(NC(=O)[C@@H](N)CO)cc32)c1 [Compound 3, hydrochloride]', 'pIC50', 7.40),
  ('CCOC(=O)N[C@@H](COC(C)=O)C(=O)Nc1ccc2cnn(-c3cccc(C)c3)c2c1 [Compound 30]', 'pIC50', 4.62),
  ('Cc1cccc(-n2ncc3ccc(NC(=O)C[C@H](N)CO)cc32)c1 [Compound 11, hydrochloride]', 'pIC50', 5.92),
  ('Cc1cccc(-n2ncc3ccc(NC(=O)[C@@H](N)CN)cc32)c1 [Compound 15, dihydrochloride]', 'pIC50', 6.20);

I = CCc1nn(-c2cccc(C)c2)c2cc(NC(=O)[C@@H](N)CO)ccc12 [Compound 43, hydrochloride]
II = Cc1cccc(-n2ncc3ccc(NC(=O)[C@H](CN)CO)cc32)c1 [Compound 4, hydrochloride]
III = Cc1cccc(-n2ncc3ccc(NC(=O)[C@@H](N)[C@H](C)O)cc32)c1 [Compound 17, hydrochloride]
IV = Cc1cccc(-n2ncc3ccc(NC(=O)[C@@H](C)N)cc32)c1 [Compound 7, hydrochloride]
V = Cc1cccc(-n2ncc3ccc(NC(=O)[C@H](N)CO)cc32)c1 [Compound 2, hydrochloride]
Qu. Arrange the 5 molecules by rising pIC50, starting with the smallest. Write the labels out in the order the request specifies.
Ans. III, I, II, IV, V
(III: 5.15, I: 5.73, II: 6.21, IV: 6.57, V: 6.92)
